Data provenance is paper PMC6219668.

Test system: panel of nearly 500 cancer cell lines
Experiment: Cancer Cell Line Encyclopedia profiling, 3-day CellTiter-Glo
Type: cell-based
Settings: p31fuj (haematopoietic_and_lymphoid_tissue); read-out: IC50
pIC50: −log10 of the molar value.

MOLECULE	pIC50
CC(=O)c1c(C)c2cnc(Nc3ccc(N4CCNCC4)cn3)nc2n(C2CCCC2)c1=O	< 5.10

* * *

Test system: panel of nearly 500 cancer cell lines
Assay: Cancer Cell Line Encyclopedia profiling, 3-day CellTiter-Glo
Assay type: cell-based
Details: m059j (central_nervous_system); read-out: IC50

MOLECULE	IC50
CC(=O)c1c(C)c2cnc(Nc3ccc(N4CCNCC4)cn3)nc2n(C2CCCC2)c1=O	> 8 µM

* * *

Tested on: panel of nearly 500 cancer cell lines
Assay: Cancer Cell Line Encyclopedia profiling, 3-day CellTiter-Glo
Assay type: cell-based
Settings: Homo sapiens, NCI-H1666

MOLECULE	IC50
CN(C)C(=O)c1cc2cnc(Nc3ccc(N4CCNCC4)cn3)nc2n1C1CCCC1 [Ribociclib]	> 8 µM

* * *

System: panel of nearly 500 cancer cell lines
Assay: Cancer Cell Line Encyclopedia profiling, 3-day CellTiter-Glo
Format: cell-based
Conditions: Homo sapiens, NCI-H1155

MOLECULE	MEASURED_TARGET	EC50, nM
CN(C)C(=O)c1cc2cnc(Nc3ccc(N4CCNCC4)cn3)nc2n1C1CCCC1	panel of nearly 500 cancer cell lines	2660

* * *

Test system: panel of nearly 500 cancer cell lines
Experiment: Cancer Cell Line Encyclopedia profiling, 3-day CellTiter-Glo
Assay type: cell-based
Details: corl23 (lung); read-out: IC50

COMPOUND	IC50
CC(=O)c1c(C)c2cnc(Nc3ccc(N4CCNCC4)cn3)nc2n(C2CCCC2)c1=O [Palbociblib]	> 8 µM

* * *

Test system: NCI-H23
Assay: cells
Assay type: cell-based
Details: Homo sapiens, NCI-H23, 72 h
pIC50: −log10 of the molar value.
QUANTITY_KIND: pIC50

MOLECULE	QUANTITY_KIND	RECORDED_VALUE
CN(C)C(=O)c1cc2cnc(Nc3ccc(N4CCNCC4)cn3)nc2n1C1CCCC1	pIC50	< 5.00

* * *

Test system: panel of nearly 500 cancer cell lines
Test: Cancer Cell Line Encyclopedia profiling, 3-day CellTiter-Glo
Format: cell-based
Conditions: en (endometrium); read-out: IC50
QUANTITY_KIND: IC50

MOLECULE	RECORDED_VALUE
CC(=O)c1c(C)c2cnc(Nc3ccc(N4CCNCC4)cn3)nc2n(C2CCCC2)c1=O [Palbociblib]	> 8 µM

* * *

Tested on: SNU-761
Assay: cells
Format: cell-based
Details: SNU-761, 72 h

MOLECULE	MEASURED_TARGET	IC50
CN(C)C(=O)c1cc2cnc(Nc3ccc(N4CCNCC4)cn3)nc2n1C1CCCC1	SNU-761	> 10 µM

* * *

System: panel of nearly 500 cancer cell lines
Test: Cancer Cell Line Encyclopedia profiling, 3-day CellTiter-Glo
Type: cell-based
Details: Homo sapiens, MFE-280
QUANTITY_KIND: IC50

MOLECULE	MEASURED_TARGET	QUANTITY_KIND	RECORDED_VALUE
CN(C)C(=O)c1cc2cnc(Nc3ccc(N4CCNCC4)cn3)nc2n1C1CCCC1	panel of nearly 500 cancer cell lines	IC50	> 8 µM

* * *

Tested on: panel of nearly 500 cancer cell lines
Assay: Cancer Cell Line Encyclopedia profiling, 3-day CellTiter-Glo
Assay type: cell-based
Settings: Homo sapiens, NCI-H1694
pIC50: −log10 of the molar value.

MOLECULE	pIC50
CN(C)C(=O)c1cc2cnc(Nc3ccc(N4CCNCC4)cn3)nc2n1C1CCCC1	< 5.10

* * *

Tested on: panel of nearly 500 cancer cell lines
Assay: Cancer Cell Line Encyclopedia profiling, 3-day CellTiter-Glo
Assay type: cell-based
Conditions: hmcb (skin); read-out: IC50
pIC50: −log10 of the molar value.

COMPOUND	pIC50
CC(=O)c1c(C)c2cnc(Nc3ccc(N4CCNCC4)cn3)nc2n(C2CCCC2)c1=O [Palbociblib]	< 5.10

* * *

Test system: panel of nearly 500 cancer cell lines
Experiment: Cancer Cell Line Encyclopedia profiling, 3-day CellTiter-Glo
Assay type: cell-based
Conditions: Homo sapiens, MDA-MB-468
pIC50: −log10 of the molar value.

MOLECULE	pIC50
CN(C)C(=O)c1cc2cnc(Nc3ccc(N4CCNCC4)cn3)nc2n1C1CCCC1	< 5.10

* * *

Test system: panel of nearly 500 cancer cell lines
Experiment: Cancer Cell Line Encyclopedia profiling, 3-day CellTiter-Glo
Format: cell-based
Conditions: Homo sapiens, BCPAP
pEC50: −log10 of the molar value.

MOLECULE	pEC50
CN(C)C(=O)c1cc2cnc(Nc3ccc(N4CCNCC4)cn3)nc2n1C1CCCC1	< 5.10

* * *

Tested on: panel of nearly 500 cancer cell lines
Experiment: Cancer Cell Line Encyclopedia profiling, 3-day CellTiter-Glo
Type: cell-based
Settings: KMS-26
pEC50: −log10 of the molar value.

COMPOUND	MEASURED_TARGET	pEC50
CC(=O)c1c(C)c2cnc(Nc3ccc(N4CCNCC4)cn3)nc2n(C2CCCC2)c1=O [Palbociclib, reference compound]	panel of nearly 500 cancer cell lines	5.88
CN(C)C(=O)c1cc2cnc(Nc3ccc(N4CCNCC4)cn3)nc2n1C1CCCC1	panel of nearly 500 cancer cell lines	5.47

* * *

The following compounds are listed with their measured pEC50 values.
Tested on: panel of nearly 500 cancer cell lines
Experiment: Cancer Cell Line Encyclopedia profiling, 3-day CellTiter-Glo
Assay type: cell-based
Details: SH-10-TC
pEC50: −log10 of the molar value.

COMPOUND	MEASURED_TARGET	pEC50
CC(=O)c1c(C)c2cnc(Nc3ccc(N4CCNCC4)cn3)nc2n(C2CCCC2)c1=O [Palbociclib, reference compound]	panel of nearly 500 cancer cell lines	< 5.10
CN(C)C(=O)c1cc2cnc(Nc3ccc(N4CCNCC4)cn3)nc2n1C1CCCC1	panel of nearly 500 cancer cell lines	< 5.10

* * *

System: panel of nearly 500 cancer cell lines
Assay: Cancer Cell Line Encyclopedia profiling, 3-day CellTiter-Glo
Assay type: cell-based
Conditions: NCI-H1339

COMPOUND	IC50
CN(C)C(=O)c1cc2cnc(Nc3ccc(N4CCNCC4)cn3)nc2n1C1CCCC1 [Ribociclib]	> 8 µM

* * *

The following compounds are listed with their measured pEC50 values.
Test system: panel of nearly 500 cancer cell lines
Assay: Cancer Cell Line Encyclopedia profiling, 3-day CellTiter-Glo
Format: cell-based
Conditions: Homo sapiens, T98G
pEC50: −log10 of the molar value.

COMPOUND	pEC50
CN(C)C(=O)c1cc2cnc(Nc3ccc(N4CCNCC4)cn3)nc2n1C1CCCC1	< 5.10
CC(=O)c1c(C)c2cnc(Nc3ccc(N4CCNCC4)cn3)nc2n(C2CCCC2)c1=O [Palbociclib, reference compound]	< 5.10

* * *

Tested on: panel of nearly 500 cancer cell lines
Assay: Cancer Cell Line Encyclopedia profiling, 3-day CellTiter-Glo
Assay type: cell-based
Conditions: Homo sapiens, SK-MEL-24
The following compounds are listed with their measured EC50 values.
QUANTITY_KIND: EC50

COMPOUND	QUANTITY_KIND	RECORDED_VALUE
CN(C)C(=O)c1cc2cnc(Nc3ccc(N4CCNCC4)cn3)nc2n1C1CCCC1 [Ribociclib]	EC50	> 8 µM
CC(=O)c1c(C)c2cnc(Nc3ccc(N4CCNCC4)cn3)nc2n(C2CCCC2)c1=O [Palbociclib, reference compound]	EC50	> 8 µM

* * *

The following molecules are listed with their measured pEC50 values.
System: panel of nearly 500 cancer cell lines
Assay: Cancer Cell Line Encyclopedia profiling, 3-day CellTiter-Glo
Type: cell-based
Conditions: Homo sapiens, COR-L23
pEC50: −log10 of the molar value.

MOLECULE	MEASURED_TARGET	pEC50
CN(C)C(=O)c1cc2cnc(Nc3ccc(N4CCNCC4)cn3)nc2n1C1CCCC1	panel of nearly 500 cancer cell lines	< 5.10
CC(=O)c1c(C)c2cnc(Nc3ccc(N4CCNCC4)cn3)nc2n(C2CCCC2)c1=O [Palbociclib, reference compound]	panel of nearly 500 cancer cell lines	< 5.10

* * *

Test system: panel of nearly 500 cancer cell lines
Assay: Cancer Cell Line Encyclopedia profiling, 3-day CellTiter-Glo
Assay type: cell-based
Details: kp3 (pancreas); read-out: IC50
pIC50: −log10 of the molar value.
QUANTITY_KIND: pIC50

MOLECULE	RECORDED_VALUE
CC(=O)c1c(C)c2cnc(Nc3ccc(N4CCNCC4)cn3)nc2n(C2CCCC2)c1=O [Palbociblib]	< 5.10

* * *

Tested on: panel of nearly 500 cancer cell lines
Assay: Cancer Cell Line Encyclopedia profiling, 3-day CellTiter-Glo
Assay type: cell-based
Conditions: Homo sapiens, TOV112D
pIC50: −log10 of the molar value.

COMPOUND	pIC50
CN(C)C(=O)c1cc2cnc(Nc3ccc(N4CCNCC4)cn3)nc2n1C1CCCC1 [Ribociclib]	< 5.10

* * *

Test system: panel of nearly 500 cancer cell lines
Experiment: Cancer Cell Line Encyclopedia profiling, 3-day CellTiter-Glo
Assay type: cell-based
Conditions: t47d (breast); read-out: IC50
QUANTITY_KIND: IC50

COMPOUND	RECORDED_VALUE
CC(=O)c1c(C)c2cnc(Nc3ccc(N4CCNCC4)cn3)nc2n(C2CCCC2)c1=O [Palbociblib]	> 8 µM
